Parameter 'readout' = IC50; parameter 'system' = MAT2A (Homo sapiens).
Sequence (P31153 whole entry): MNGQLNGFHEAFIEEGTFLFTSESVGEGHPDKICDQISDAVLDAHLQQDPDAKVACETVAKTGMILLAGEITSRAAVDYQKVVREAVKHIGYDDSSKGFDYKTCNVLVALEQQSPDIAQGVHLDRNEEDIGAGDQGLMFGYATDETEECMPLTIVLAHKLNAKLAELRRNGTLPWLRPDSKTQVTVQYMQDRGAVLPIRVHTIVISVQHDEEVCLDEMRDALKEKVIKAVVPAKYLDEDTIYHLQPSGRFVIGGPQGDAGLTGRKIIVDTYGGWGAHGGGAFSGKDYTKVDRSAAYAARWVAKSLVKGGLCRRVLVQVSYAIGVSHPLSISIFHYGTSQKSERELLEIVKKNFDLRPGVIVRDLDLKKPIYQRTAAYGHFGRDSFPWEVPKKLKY

Consider the reported IC50 for these compounds:
CCc1ncccc1-n1c(=O)c2nccn2c2cc(Cl)c(C(F)(F)F)cc21 [Example 110]: 1 to 100 nM
Cc1ncccc1-n1c(=O)c2ncc(C)n2c2cc(Cl)c(Br)cc21: 100 to 1000 nM
Cc1c(F)cccc1-n1c(=O)c2nccn2c2ccc(C3CC3)cc21: 100 to 1000 nM

IC50 reported for this compound `Cc1cc2c(cc1Br)n(-c1cccnc1C)c(=O)c1ncc(C)n12` : 100 to 1000 nM

The value of IC50 measured for the compound `Cc1cc2c(cc1Br)n(-c1cccnc1O)c(=O)c1nccn12` turned out to be > 10000 nM

---

IC50 listing for selected molecules.
# System: HCT116 (MTAP del) cell line
# experimental.protocol: Cell proliferation inhibition in MTAP-deficient cancer cells, WST-1 assay
# Type: cell-based
# condition.label: Homo sapiens, HCT-116, 120 hours of drug treatment, maximum concentration 10 µM, read-out: HCT116 MTAP^-/- (IC50, cell proliferation inhibited by 50%)
# Description: The HCT116 (MTAP del) cell line, which is a colorectal cancer cell line with deletion of MTAP gene, was treated with a compound according to an embodiment of the present application as a MAT2A inhibitor, and after culturing for 120 hours, the change in the number of cells was measured with a WST-1 assay reagent. […]

// worked examples, IC50 included
COc1cc2c(cc1Br)n(-c1cccnc1C)c(=O)c1nccn12: 100 to 1000 nM
Cc1ncccc1-n1c(=O)c2ncc(C)n2c2ccc(C(F)(F)F)cc21: 1 to 100 nM

// IC50 value for `COc1ccc2c(c1)n(-c1cccc(F)c1C)c(=O)c1nccn12` : 100 to 1000 nM

So, `COc1ccc2c(c1)n(-c1ccccc1C)c(=O)c1nccn12` ? Its IC50 was 100 to 1000 nM

Reported IC50 of `Cc1ncccc1-n1c(=O)c2nccn2c2ccc(C(F)(F)F)cc21` : 1 to 100 nM

Just so you know, measured IC50 for `Cc1ccccc1-n1c(=O)c2nccn2c2ccc(C(F)(F)F)cc21` came out at 1 to 100 nM

---

Listing of recorded IC50 by entry.
# Tested on: HCT116 (MTAP del) cell line
# experimental.protocol: Cell proliferation inhibition in MTAP-deficient cancer cells, WST-1 assay
# Format: cell-based
# condition.label: Homo sapiens, HCT-116, 120 hours of drug treatment, maximum concentration 10 µM, read-out: HCT116 MTAP^-/- (IC50, cell proliferation inhibited by 50%)

Cc1cccc(-n2c(=O)c3nccn3c3ccc(Cl)cc32)c1 [Example 39]: 100 to 1000 nM
Cc1ccccc1-n1c(=O)c2nccn2c2ccc(Cl)nc21 [Example 35]: 100 to 1000 nM
Cc1ccccc1-n1c(=O)c2nccn2c2ccc(I)cc21 [Example 25]: 1 to 100 nM

Per the record, Cc1ncccc1-n1c(=O)c2ncc(Cl)n2c2cc(Cl)c(Br)cc21 [Example 89] has IC50 of 100 to 1000 nM

IC50 reported for this compound CCc1ccccc1-n1c(=O)c2nccn2c2ccc(Cl)cc21 [Example 3] : 100 to 1000 nM

Per the record, Cc1ncccc1-n1c(=O)c2nccn2c2cc(Cl)c(C(F)(F)F)cc21 [Example 96] has IC50 of 1 to 100 nM
